Cited source: ChEMBL document CHEMBL4266004

Assay: Cytotoxicity against mouse NIH/3T3 cells
Assay type: cell-based, NIH3T3
Details: read-out: TC50 (the source's name)
Result Type: CC50 (µM)

Molecule | Operator | Reported Result
CN1CCN(CC#Cc2ccc3ncnc(Nc4ccc(OCc5cccc(F)c5)c(Cl)c4)c3c2)CC1 | = | 7.2
CN1CCN(CC#Cc2cc3ncnc(Nc4ccc(OCc5cccc(F)c5)c(Cl)c4)c3s2)CC1 | = | 4.8
Fc1cccc(COc2ccc(Nc3ncnc4cc(C#Cc5ccc(C(F)(F)F)nc5)sc34)cc2Cl)c1 | > | 50
Fc1cccc(COc2ccc(Nc3ncnc4cc(C#C[C@@H]5CCCN5)sc34)cc2Cl)c1 | = | 10
CC(C)(C)OC(=O)N1CCN(CC#Cc2cc3ncnc(Nc4ccc(OCc5cccc(F)c5)c(Cl)c4)c3s2)CC1 | = | 47
Fc1cccc(COc2ccc(Nc3ncnc4ccc(C#CC5CCCC5)cc34)cc2Cl)c1 | > | 50
CCCN(CC#Cc1cc2ncnc(Nc3ccc(OCc4cccc(F)c4)c(Cl)c3)c2s1)CCC | > | 50
CC(C)(C)CC#Cc1cc2ncnc(Nc3ccc(OCc4cccc(F)c4)c(Cl)c3)c2s1 | > | 50
Fc1cccc(COc2ccc(Nc3ncnc4ccc(C#CCN5CCOCC5)cc34)cc2Cl)c1 | = | 33

----------
System: Plasmodium falciparum
Experiment: Antimalarial activity against Plasmodium falciparum D6 trophozoites after 72 hrs by SYBR Green I dye-based fluorescence assay
Type: functional, organism-based
Conditions: D6, 72 h
Result Type: EC50

Molecule | Result Type | Reported Result
CCOC(=O)CN(C)CC#Cc1cc2c(Nc3ccc(OCc4cccc(F)c4)c(Cl)c3)ncnc2s1 | EC50 | > 15000 nM
CC(C)CC#Cc1cc2ncnc(Nc3ccc(OCc4cccc(F)c4)c(Cl)c3)c2s1 | EC50 | > 15000 nM
CCOC(=O)CN(C)CC#Cc1ccc2ncnc(Nc3ccc(OCc4cccc(F)c4)c(Cl)c3)c2c1 | EC50 | > 15000 nM
Fc1cccc(COc2ccc(Nc3ncnc4cc(C#Cc5ccc(C(F)(F)F)nc5)sc34)cc2Cl)c1 | EC50 | > 3600 nM
Fc1cccc(COc2ccc(Nc3ncnc4cc(C#C[C@@H]5CCCN5)sc34)cc2Cl)c1 | EC50 | 940 nM
Fc1cccc(COc2ccc(Nc3ncnc4cc(C#CCN5CCOCC5)sc34)cc2Cl)c1 | EC50 | 3000 nM
CN1CCN(CC#Cc2cc3ncnc(Nc4ccc(OCc5cccc(F)c5)c(Cl)c4)c3s2)CC1 | EC50 | 640 nM
Fc1cccc(COc2ccc(Nc3ncnc4ccc(C#CCN5CCOCC5)cc34)cc2Cl)c1 | EC50 | 5900 nM
CCN(CC)CCCC(C)Nc1ccnc2cc(Cl)ccc12 (centres undefined) | EC50 | 8.9 nM

----------
Assay: Selectivity index, ratio of TC50 for human HepG2 cells to EC50 for Leishmania major intracellular amastigotes harboring luciferase infected in mouse RAW264.7 cells
Format: toxicity, cell-based
Conditions: read-out: Selectivity Index

Molecule | Operator | selectivity ratio
CC(C)(C)OC(=O)N1CCN(CC#Cc2cc3ncnc(Nc4ccc(OCc5cccc(F)c5)c(Cl)c4)c3s2)CC1 | > | 3.5
CN(C)CC#Cc1cc2c(Nc3ccc(OCc4cccc(F)c4)c(Cl)c3)ncnc2s1 | > | 5.8
CCCN(CC#Cc1cc2c(Nc3ccc(OCc4cccc(F)c4)c(Cl)c3)ncnc2s1)CCC | = | 12
CCOC(=O)CN(C)CC#Cc1cc2c(Nc3ccc(OCc4cccc(F)c4)c(Cl)c3)ncnc2s1 | > | 3.1
CCCN(CC#Cc1cc2ncnc(Nc3ccc(OCc4cccc(F)c4)c(Cl)c3)c2s1)CCC | = | 4.5
Fc1cccc(COc2ccc(Nc3ncnc4sc(C#CCN5CCCC5)cc34)cc2Cl)c1 | > | 7
Fc1cccc(COc2ccc(Nc3ncnc4sc(C#CCN5CCOCC5)cc34)cc2Cl)c1 | > | 4.5
Fc1cccc(COc2ccc(Nc3ncnc4cc(C#C[C@@H]5CCCN5)sc34)cc2Cl)c1 | = | 2.3
CC(C)(C)OC(=O)N1CCC[C@H]1C#Cc1cc2ncnc(Nc3ccc(OCc4cccc(F)c4)c(Cl)c3)c2s1 | > | 16
CCOC(=O)CN(C)CC#Cc1cc2ncnc(Nc3ccc(OCc4cccc(F)c4)c(Cl)c3)c2s1 | = | 5.9
COCC#Cc1cc2ncnc(Nc3ccc(OCc4cccc(F)c4)c(Cl)c3)c2s1 | > | 3.5
Fc1cccc(COc2ccc(Nc3ncnc4cc(C#CCN5CCCC5)sc34)cc2Cl)c1 | = | 1.2
CN1CCN(CC#Cc2ccc3ncnc(Nc4ccc(OCc5cccc(F)c5)c(Cl)c4)c3c2)CC1 | = | 0.8
CN1CCN(CC#Cc2cc3c(Nc4ccc(OCc5cccc(F)c5)c(Cl)c4)ncnc3s2)CC1 | = | 1.9
CN(CC#Cc1cc2c(Nc3ccc(OCc4cccc(F)c4)c(Cl)c3)ncnc2s1)Cc1ccccc1 | = | 2
Fc1cccc(COc2ccc(Nc3ncnc4ccc(C#CCN5CCSCC5)cc34)cc2Cl)c1 | > | 5.4
Fc1cccc(COc2ccc(Nc3ncnc4cc(C#Cc5ccccn5)sc34)cc2Cl)c1 | = | 63
CN(C)CC#Cc1cc2ncnc(Nc3ccc(OCc4cccc(F)c4)c(Cl)c3)c2s1 | > | 13
Fc1cccc(COc2ccc(Nc3ncnc4cc(C#CCN5CCNCC5)sc34)cc2Cl)c1 | > | 7.3
Fc1cccc(COc2ccc(Nc3ncnc4cc(C#CCN5CCSCC5)sc34)cc2Cl)c1 | > | 4.8
COCC#Cc1cc2c(Nc3ccc(OCc4cccc(F)c4)c(Cl)c3)ncnc2s1 | = | 1.3
Fc1cccc(COc2ccc(Nc3ncnc4ccc(C#CCN5CCOCC5)cc34)cc2Cl)c1 | > | 5.5
Fc1cccc(COc2ccc(Nc3ncnc4cc(C#CCN5CCOCC5)sc34)cc2Cl)c1 | > | 3.8
Fc1cccc(COc2ccc(Nc3ncnc4sc(C#CCN5CCNCC5)cc34)cc2Cl)c1 | = | 0.85
